src = patent US12503436B2

Item-by-item account of EC50
# Target of assay: STING (Homo sapiens, UniProt Q86WV6, G230A/H232R/R293Q/R71H)
# Sequence (Q86WV6 whole entry R71H/G230A/H232R/R293Q): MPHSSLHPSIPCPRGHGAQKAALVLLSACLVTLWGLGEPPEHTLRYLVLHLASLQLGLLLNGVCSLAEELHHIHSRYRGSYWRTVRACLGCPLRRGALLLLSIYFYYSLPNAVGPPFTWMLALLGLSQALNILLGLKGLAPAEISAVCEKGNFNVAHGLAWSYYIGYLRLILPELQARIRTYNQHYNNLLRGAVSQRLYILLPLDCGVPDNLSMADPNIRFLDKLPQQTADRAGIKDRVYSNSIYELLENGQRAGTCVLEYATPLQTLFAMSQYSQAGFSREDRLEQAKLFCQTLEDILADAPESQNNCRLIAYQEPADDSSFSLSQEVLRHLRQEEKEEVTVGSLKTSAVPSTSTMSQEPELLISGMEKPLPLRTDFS
# Experiment notes: STING reporter assay in THP1-Dual KO-IFNAR2 cells (2′3′cGAMP stimulation, luciferase reporter)
# Conditions used: 15 μM 2′3′cGAMP stimulation, 24 h, read-out: Pharmaron, THP1_IFNAR2 STING 24 h Luci Normalized: GeoMean EC50

The following compounds have reported results that may help.
                                   compound             val
0  CC1(C(=O)Nc2c[nH]c3ccc(OCc4ccc(C(F)(F)F)cc4)cc23)CCOC1 (stereo not shown)  200 to 1000 nM
1  O=C(Nc1c[nH]c2ccc(CCOc3ccc(C(F)(F)F)cc3)cc12)C1CCOCC1  200 to 1000 nM
2  CC1(C(=O)Nc2c[nH]c3ccc(CCOc4ccc(C(F)(F)F)cc4)cc23)CCC1    40 to 200 nM

Asked: Need EC50, item CCC(=O)Nc1c[nH]c2ccc(CCOc3ccc(C)cc3)cc12
Given back: 200 to 1000 nM

Asked: Need EC50, item CC(=O)Nc1c[nH]c2ccc(Cc3ccc(C(F)(F)F)cc3)cc12
Given back: 200 to 1000 nM

Asked: Need EC50, item CC1(C)CC(C(=O)Nc2c[nH]c3ccc(O[C@H]4C[C@@H](c5ccc(C(F)(F)F)cc5)C4)cc23)C1
Given back: 40 to 200 nM

Asked: Need EC50, item CC(C)(C)OC(=O)N1CCC(CCOc2ccc3[nH]cc(NC(=O)C4CCC4)c3c2)CC1
Given back: 200 to 1000 nM

Asked: Need EC50, item CO[C@H]1C[C@H](C(=O)Nc2c[nH]c3ccc(CCOc4ccc(C(F)(F)F)cc4)cc23)C1
Given back: 40 to 200 nM

Asked: Need EC50, item N#C[C@H]1C[C@@H]1C(=O)Nc1c[nH]c2ccc(OCCc3ccc(C(F)(F)F)cc3)cc12
Given back: 200 to 1000 nM

Asked: Need EC50, item O=C(Nc1c[nH]c2ccc(O[C@H]3C[C@H](c4ccc(C(F)(F)F)cc4)C3)cc12)C1CC1
Given back: 40 to 200 nM

Asked: Need EC50, item CC(=O)Nc1c[nH]c2ccc(Oc3ccc(C(F)(F)F)cc3)cc12
Given back: 1000 to 5000 nM

Asked: Need EC50, item CC(=O)Nc1c[nH]c2ccc(CCOc3ccc(Cl)cc3)cc12
Given back: 200 to 1000 nM

Asked: Need EC50, item O=C(Nc1c[nH]c2ccc(OCC[C@@H]3C[C@@H]4CN(CC(F)(F)F)C[C@@H]4C3)cc12)C1CCOCC1
Given back: 200 to 1000 nM

Asked: Need EC50, item C[C@]1(C(=O)Nc2c[nH]c3ccc(OCc4ccc(C(F)(F)F)cc4)cc23)CC[C@@H](O)CC1
Given back: 200 to 1000 nM

Asked: Need EC50, item CC(=O)Nc1c[nH]c2ccc(OCCC34CC(C(F)(F)F)(C3)C4)cc12
Given back: 200 to 1000 nM

Asked: Need EC50, item COCC(=O)Nc1c[nH]c2ccc(O[C@H]3C[C@@H](c4ccc(C(F)(F)F)cc4)C3)cc12
Given back: 200 to 1000 nM

Asked: Need EC50, item COC1CC(C(=O)Nc2c[nH]c3ccc(CCOc4ccc(C(F)(F)F)cc4)cc23)C1 (stereo not shown)
Given back: 200 to 1000 nM

Asked: Need EC50, item COC1CC(C(=O)Nc2c[nH]c3ccc(OCC[C@@H]4C[C@@H]5CN(CC(F)(F)F)C[C@@H]5C4)cc23)C1 (stereo partly shown)
Given back: 200 to 1000 nM

Asked: Need EC50, item CC(=O)Nc1c[nH]c2ccc(CCOc3ccc(C(F)(F)F)nc3)cc12
Given back: 1000 to 5000 nM
